Form field: IC50 (nM), neutralization of rVSV-GP (one value per entry).
Target: T1, SUDV GP on rVSV particles (Sudan virus (SUDV), UniProt Q66814 33-676)
T1 sequence: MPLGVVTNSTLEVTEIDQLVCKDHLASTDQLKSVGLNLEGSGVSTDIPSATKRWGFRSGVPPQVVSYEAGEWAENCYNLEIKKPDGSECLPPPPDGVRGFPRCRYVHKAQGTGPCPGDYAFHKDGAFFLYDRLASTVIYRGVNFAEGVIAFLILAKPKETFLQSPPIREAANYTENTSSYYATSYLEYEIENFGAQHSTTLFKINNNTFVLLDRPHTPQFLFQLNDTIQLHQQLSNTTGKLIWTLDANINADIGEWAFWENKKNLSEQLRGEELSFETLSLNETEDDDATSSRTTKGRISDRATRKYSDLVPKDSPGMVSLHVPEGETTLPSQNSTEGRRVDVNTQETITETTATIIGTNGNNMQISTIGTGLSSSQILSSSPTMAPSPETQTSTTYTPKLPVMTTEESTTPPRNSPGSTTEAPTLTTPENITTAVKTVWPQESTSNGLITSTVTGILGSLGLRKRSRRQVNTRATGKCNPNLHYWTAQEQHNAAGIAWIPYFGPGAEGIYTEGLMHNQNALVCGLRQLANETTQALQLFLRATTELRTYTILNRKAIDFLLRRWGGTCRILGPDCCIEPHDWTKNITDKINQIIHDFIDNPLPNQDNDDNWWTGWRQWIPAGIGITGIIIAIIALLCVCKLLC
Assay: cell-based or functional assay
Value Type: IC50 (nM), neutralization of rVSV-GP

Binder	Value Type	Relation Sign	Recorded Measurement
PE-87 H100A (antibody, V domains shown) VH: QVQLVQSGVTLVQPGGSLRVSCAASGFTFSSYAMSWVRQAPGKGLEWVSAISGLGGSTYYADSVKGRFTISRDNSKNTLYLQMNSLRAEDTAVYYCAKDARVWAAGYHFDYWGQGALVTVSS VL: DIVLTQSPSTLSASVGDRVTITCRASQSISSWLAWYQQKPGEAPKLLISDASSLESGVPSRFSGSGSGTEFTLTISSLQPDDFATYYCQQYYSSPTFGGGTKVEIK	IC50 (nM), neutralization of rVSV-GP	=	1
PE-87 D110A (antibody, V domains shown) VH: QVQLVQSGVTLVQPGGSLRVSCAASGFTFSSYAMSWVRQAPGKGLEWVSAISGLGGSTYYADSVKGRFTISRDNSKNTLYLQMNSLRAEDTAVYYCAKDHRVWAAGYHFAYWGQGALVTVSS VL: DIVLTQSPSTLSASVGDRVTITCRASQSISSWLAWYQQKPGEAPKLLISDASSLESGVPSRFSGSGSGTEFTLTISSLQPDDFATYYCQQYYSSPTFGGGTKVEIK	IC50 (nM), neutralization of rVSV-GP	=	1.5
PE-87 F109A (antibody, V domains shown) VH: QVQLVQSGVTLVQPGGSLRVSCAASGFTFSSYAMSWVRQAPGKGLEWVSAISGLGGSTYYADSVKGRFTISRDNSKNTLYLQMNSLRAEDTAVYYCAKDHRVWAAGYHADYWGQGALVTVSS VL: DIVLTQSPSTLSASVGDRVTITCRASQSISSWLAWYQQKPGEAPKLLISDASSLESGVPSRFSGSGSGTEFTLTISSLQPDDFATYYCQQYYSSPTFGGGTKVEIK	IC50 (nM), neutralization of rVSV-GP	=	2.1
PE-87 Y111A (antibody, V domains shown) VH: QVQLVQSGVTLVQPGGSLRVSCAASGFTFSSYAMSWVRQAPGKGLEWVSAISGLGGSTYYADSVKGRFTISRDNSKNTLYLQMNSLRAEDTAVYYCAKDHRVWAAGYHFDAWGQGALVTVSS VL: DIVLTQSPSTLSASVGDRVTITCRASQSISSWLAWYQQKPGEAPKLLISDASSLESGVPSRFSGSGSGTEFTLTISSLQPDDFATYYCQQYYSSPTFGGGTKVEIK	IC50 (nM), neutralization of rVSV-GP	=	0.8
PE-87 G106A (antibody, V domains shown) VH: QVQLVQSGVTLVQPGGSLRVSCAASGFTFSSYAMSWVRQAPGKGLEWVSAISGLGGSTYYADSVKGRFTISRDNSKNTLYLQMNSLRAEDTAVYYCAKDHRVWAAAYHFDYWGQGALVTVSS VL: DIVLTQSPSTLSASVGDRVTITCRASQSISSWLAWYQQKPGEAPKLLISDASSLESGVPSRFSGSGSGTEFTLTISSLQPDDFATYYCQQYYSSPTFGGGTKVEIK	IC50 (nM), neutralization of rVSV-GP	=	0.9
PE-87 Y107A (antibody, V domains shown) VH: QVQLVQSGVTLVQPGGSLRVSCAASGFTFSSYAMSWVRQAPGKGLEWVSAISGLGGSTYYADSVKGRFTISRDNSKNTLYLQMNSLRAEDTAVYYCAKDHRVWAAGAHFDYWGQGALVTVSS VL: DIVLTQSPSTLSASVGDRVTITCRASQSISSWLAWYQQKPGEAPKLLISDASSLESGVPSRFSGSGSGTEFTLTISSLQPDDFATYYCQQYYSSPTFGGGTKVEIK	IC50 (nM), neutralization of rVSV-GP	>	350
PE-87 V102A (antibody, V domains shown) VH: QVQLVQSGVTLVQPGGSLRVSCAASGFTFSSYAMSWVRQAPGKGLEWVSAISGLGGSTYYADSVKGRFTISRDNSKNTLYLQMNSLRAEDTAVYYCAKDHRAWAAGYHFDYWGQGALVTVSS VL: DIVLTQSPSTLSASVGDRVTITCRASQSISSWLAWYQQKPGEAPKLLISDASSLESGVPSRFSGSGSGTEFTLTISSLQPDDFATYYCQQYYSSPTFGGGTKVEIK	IC50 (nM), neutralization of rVSV-GP	=	1.1
